Attribution: PubChem BioAssay AID248

System: L1210 leukemia ip in BDF1 mice, survival T/C
Experiment: NCI In Vivo Anticancer Drug Screen. Data for tumor model L1210 Leukemia (intraperitoneal) in B6D2F1 (BDF1) mice
Settings: endpoint: mean survival time; dose: 400.0 mg/kg/injection; schedule: Q01DX001 (ip); vehicle: carboxymethylcellulose (CMC); higher = longer survival
Toxic doses and inconclusive results are not listed.
measured_endpoint: T/C

Look over these answered cases.
O=C(NC(=O)c1cccc(Br)c1)Nc1ccccc1 | 96 % of control
CCC(=O)C(C)C(=O)Nc1ccccc1 (configuration not stated) | 100 % of control
Cc1cn(C2CCCCO2)c(=O)nc1NO (configuration not stated) | 108 % of control
CC(=O)OC(CO)C(NC(=O)N1C(=O)C=CC1=O)NC(=O)N1C(=O)C=CC1=O (configuration not stated) | 113 % of control
O=C1O/C(=C2\OCc3ccccc32)c2ccccc21 | 91 % of control

query: Enter reported T/C observed with L1210 leukemia ip in BDF1 mice, survival T/C for `CC(=O)Nc1cc2c(cc1[N+](=O)[O-])-c1ccccc1/C2=N\O`
result: 111 % of control

query: Here is the next compound: `O=NN1CCN(c2ccccc2)C1=O`
result: 98 % of control

query: Here is the next compound: CN1C(=O)OC2C3NC(=O)OC3C(O)C(O)C21 (configuration not stated)
result: 102 % of control

query: Here is the next compound: NC(CC(=O)O)C(=O)O (configuration not stated)
result: 92 % of control

query: Here is the next compound: `Cc1ccc(S(=O)(=O)N(CCC(=O)O)Cc2ccccc2)cc1`
result: 108 % of control
